# target: VIM-1 (Pseudomonas aeruginosa, UniProt A0A0F7KYQ8)
# run_description: Enzyme activity: determination of IC50, fluorescence assay with CCF2-FA substrate
# Format: biochemical
# experimental_setup: enzyme 30 pM, CCF2-FA 1.25 μM, 2 hours at 25° C.; read-out: VIM1 IC50
Lab note: cut-off is 50 nM. Strictly less in IC50 is TRUE. Exactly 50 nM or more is FALSE.

The examples below pair each entry with its known result.
CCC[C@H](C(=O)O)[C@H](Cc1ccc(-c2cncc(CN3CCCCC3)c2)cc1)c1nn[nH]n1 : TRUE
CCC[C@H](C(=O)O)[C@H](Cc1cnn2ncccc12)c1nnn[nH]1 : TRUE
N#CCCCC[C@H](C(=O)O)[C@H](Cc1ccccc1)c1nnn[nH]1 : FALSE

Confirm or reject: IC50 of O=C(O)[C@@H](CCC1CCCCC1)[C@H](Cc1ccccc1)c1nnn[nH]1 lies strictly below 50 nM
TRUE

Repeat with O=C(O)[C@@H](CCCC(F)(F)F)[C@H](Cc1ccccc1)c1nnn[nH]1
FALSE

Repeat with CCC[C@H](C(=O)O)[C@H](Cc1ccc(CN)cc1)c1nnn[nH]1
TRUE

Repeat with CCC[C@H](C(=O)O)[C@H](Cc1ccc(-c2ccc3[nH]ncc3c2)cn1)c1nnn[nH]1
FALSE

Repeat with CC(C)=CCCC(C(=O)O)[C@H](Cc1ccccc1)c1nnn[nH]1 (stereo in doubt)
FALSE

====

# target: IMP-1 (Serratia marcescens, UniProt P52699)
# Sequence (P52699 19-246, looked up, species assumed): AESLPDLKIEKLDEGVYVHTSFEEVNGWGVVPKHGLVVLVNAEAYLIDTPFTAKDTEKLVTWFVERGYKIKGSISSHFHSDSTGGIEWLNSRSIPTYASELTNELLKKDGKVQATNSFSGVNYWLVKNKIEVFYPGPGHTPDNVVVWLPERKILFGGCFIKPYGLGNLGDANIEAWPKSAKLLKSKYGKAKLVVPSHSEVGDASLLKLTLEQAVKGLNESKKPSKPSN
# run_description: Enzyme activity: determination of IC50, fluorescence assay with CCF2-FA substrate
# Format: biochemical
# experimental_setup: enzyme 2 pM, CCF2-FA 1.25 μM, 2 hours at 25° C.; read-out: IMP1 IC50
quantity_kind: IC50 (nM)
Answer format: numeric, nM implied, no suffix.

CCC[C@H](C(=O)O)[C@H](Cc1ccc(-c2ccccc2CN2CCOCC2)cc1)c1nn[nH]n1 : 10
O=C(O)[C@@H](C1CCCC1)[C@H](Cc1ccc(C2=CCNC2)cn1)c1nnn[nH]1 : 6400
O=C(O)[C@@H](CCCCO)[C@H](Cc1ccccc1)c1nnn[nH]1 : 5000

Any idea what IC50 was measured for CCC[C@H](C(=O)O)[C@H](Cc1ccc(C)nc1)c1nnn[nH]1 ?
6500

Repeat with CCC[C@H](C(=O)O)[C@H](Cc1ccc(-c2ccc(N)nc2)cn1)c1nnn[nH]1
5700

Repeat with CCCC[C@@H](C(=O)O)[C@@H](Cc1ccc(-c2ccc(S(N)(=O)=O)cc2)cc1)c1nn[nH]n1
200

Repeat with CC(C)C[C@H](C(=O)O)[C@H](Cc1cnc(N)s1)c1nnn[nH]1
290

Repeat with O=C(O)[C@@H](CC1CC1)[C@H](Cc1ccccc1)c1nnn[nH]1
460

====

# target: VIM-1 (Pseudomonas aeruginosa, UniProt A0A0F7KYQ8)
# run_description: Enzyme activity: determination of IC50, fluorescence assay with CCF2-FA substrate
# Format: biochemical
# experimental_setup: VIM-1 enzyme 30 pM, CCF2-FA 1.25 μM, 2 hours at 25° C.; read-out: VIM1 IC50
Documented pIC50 across a set of molecules
In simple prose, pIC50 is minus the logarithm base ten of a concentration in moles per litre.

Some solved cases for reference:
CC(C)C[C@H](C(=O)O)[C@H](Cc1cc(Cl)nc(NCCO)c1)c1nnn[nH]1 [Example 407] : 8.65
CCC[C@H](C(=O)O)[C@H](Cc1ccccc1-c1ccc(C(N)=O)cc1)c1nn[nH]n1 [Example 394] : 8.41
CC(C)C[C@H](C(=O)O)[C@H](Cc1ccc(N2CC3(CCNC3)C2)nc1)c1nnn[nH]1 [Example 336] : 7.70
CCC[C@H](C(=O)O)[C@H](Cc1cnc(S(C)(=O)=O)nc1)c1nnn[nH]1 [Example 286] : 7.43
CC(C)C[C@H](C(=O)O)[C@H](Cc1ccc(-c2ccc(C(N)=O)cc2)c(F)c1)c1nn[nH]n1 [Example 456] : 9.20

Any idea what pIC50 was measured for CCC[C@H](C(=O)O)C(Cc1ccccc1C(F)(F)F)c1nnn[nH]1 (stereo in doubt) [Example 268] ?
8.49

Repeat with CCC[C@H](C(=O)O)[C@H](Cc1ccc(C(=O)N2CCNCC2)cc1)c1nnn[nH]1 [Example 275]
7.39

Repeat with Nc1ccc(C[C@H](c2nnn[nH]2)[C@H](CC(F)(F)F)C(=O)O)cn1 [Example 435]
7.87

Repeat with CCC[C@H](C(=O)O)[C@H](Cc1ccc(-c2cnn(Cc3ccncc3)c2)cc1)c1nnn[nH]1 [Example 250]
8.12

Repeat with CCC[C@H](C(=O)O)[C@H](Cc1cccc(-c2ccc(N3CCNCC3)nc2)c1)c1nn[nH]n1 [Example 355]
8.55

Reference source for all entries: patent US9839642B2
